procedure.text: Volume of distribution in rat at 2 mg/kg, iv and 10 mg/kg, po
Format: ADME, organism-based
details: in vivo, read-out: Vdss
quantity.kind: Vd (L/kg)

INSERT INTO measurements (smiles_entry, quantity_kind, units_text, val) VALUES
  ('N#Cc1cnc(Nc2cc(N3CCN(CCN4CCOCC4)CC3)ncn2)s1', 'Vd', 'L/kg', 3.32);

----------
procedure.text: Volume of distribution in rhesus monkey at 1 mg/kg, iv and 1 mg/kg, po
Assay type: ADME, organism-based, Macaca mulatta
details: in vivo, read-out: Vdss
quantity.kind: Vd (L/kg)

INSERT INTO assay_data (smiles_entry, units_text, val) VALUES
  ('N#Cc1cnc(Nc2cc(N3CCN(CCN4CCOCC4)CC3)ncn2)s1', 'L/kg', 10.1);

----------
procedure.text: Clearance in rhesus monkey at 1 mg/kg, iv and 1 mg/kg, po
Assay type: ADME, organism-based, Macaca mulatta
details: in vivo
quantity.kind: clearance

INSERT INTO measurements (smiles_entry, quantity_kind, val) VALUES
  ('N#Cc1cnc(Nc2cc(N3CCN(CCN4CCOCC4)CC3)ncn2)s1', 'clearance', '22.7 mL/min/kg');

----------
System: Canis familiaris
procedure.text: AUC in Beagle dog at 0.25 mg/kg, iv
Type: ADME, organism-based, Canis lupus familiaris, Plasma
Set-up: dose 0.25 mg/kg, route intravenous
details: in vivo
quantity.kind: AUC (µM·h)

INSERT INTO assay_data (smiles_entry, val) VALUES
  ('N#Cc1cnc(Nc2cc(N3CCC(N)CC3)ncn2)s1', 1.91),
  ('N#Cc1cnc(Nc2cc(N3CCN(CCN4CCOCC4)CC3)ncn2)s1', 10.2),
  ('N#Cc1cnc(Nc2cc(N3CCN(CCCN4CCOCC4)CC3)ncn2)s1', 3.08),
  ('N#Cc1cnc(Nc2cc(N3CCN(CCN4CCCC4)CC3)ncn2)s1', 6.07),
  ('COCCN1CCN(c2cc(Nc3ncc(C#N)s3)ncn2)CC1', 4.81);

----------
assayed.target: Voltage-gated inwardly rectifying potassium channel KCNH2 (Homo sapiens, UniProt Q12809)
Sequence (Q12809 whole entry): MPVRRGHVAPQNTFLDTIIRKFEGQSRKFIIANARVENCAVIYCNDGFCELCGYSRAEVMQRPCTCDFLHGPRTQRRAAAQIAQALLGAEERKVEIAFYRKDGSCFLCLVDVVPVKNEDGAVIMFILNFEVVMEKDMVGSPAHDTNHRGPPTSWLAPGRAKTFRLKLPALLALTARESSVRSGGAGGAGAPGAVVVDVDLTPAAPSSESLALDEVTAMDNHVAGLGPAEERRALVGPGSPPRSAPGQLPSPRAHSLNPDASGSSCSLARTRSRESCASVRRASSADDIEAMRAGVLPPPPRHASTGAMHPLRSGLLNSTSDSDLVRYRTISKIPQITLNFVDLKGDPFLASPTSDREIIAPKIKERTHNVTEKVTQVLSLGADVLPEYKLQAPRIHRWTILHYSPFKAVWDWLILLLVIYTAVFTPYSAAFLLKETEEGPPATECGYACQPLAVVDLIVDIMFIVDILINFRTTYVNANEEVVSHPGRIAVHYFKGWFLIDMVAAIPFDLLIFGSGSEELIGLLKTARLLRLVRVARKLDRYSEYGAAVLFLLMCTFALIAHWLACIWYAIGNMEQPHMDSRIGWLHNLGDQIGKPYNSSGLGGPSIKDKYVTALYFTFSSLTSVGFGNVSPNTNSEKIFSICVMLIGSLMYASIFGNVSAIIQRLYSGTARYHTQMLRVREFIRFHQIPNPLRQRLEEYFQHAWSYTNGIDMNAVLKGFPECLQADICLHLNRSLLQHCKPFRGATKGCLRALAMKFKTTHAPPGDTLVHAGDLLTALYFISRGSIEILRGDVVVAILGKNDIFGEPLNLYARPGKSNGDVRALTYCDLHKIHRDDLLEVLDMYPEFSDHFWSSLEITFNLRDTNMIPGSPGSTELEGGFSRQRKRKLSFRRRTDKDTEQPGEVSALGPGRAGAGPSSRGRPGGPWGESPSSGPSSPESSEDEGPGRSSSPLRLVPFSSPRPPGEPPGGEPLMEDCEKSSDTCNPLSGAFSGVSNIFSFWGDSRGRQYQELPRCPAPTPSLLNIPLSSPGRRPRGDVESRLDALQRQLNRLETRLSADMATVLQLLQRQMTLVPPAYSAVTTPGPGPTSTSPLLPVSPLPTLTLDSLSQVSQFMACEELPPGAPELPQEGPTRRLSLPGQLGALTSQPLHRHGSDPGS
procedure.text: Displacement of [3H]dofetilide from human ERG
A collection of compounds and their measured log10 Activity
quantity.kind: log10 Activity (log10 of the value in µM)

INSERT INTO results (compound, val) VALUES
  ('N#Cc1cnc(Nc2cc(N3CCCC(N)CC3)ncn2)s1 (stereo unspecified)', 0.01),
  ('N#Cc1cnc(Nc2cc(N3CCN(CCCN4CCOCC4)CC3)ncn2)s1', 0.60),
  ('N#Cc1cnc(Nc2ccncn2)s1', 0.47),
  ('N#Cc1cnc(Nc2cc(N3CCC(N)CC3)ncn2)s1', 0.82),
  ('CC(=O)N1CCN(c2cc(Nc3ncc(C#N)s3)ncn2)CC1', 0.52),
  ('N#Cc1cnc(Nc2cc(N3CCN(CCN4CCOCC4)CC3)ncn2)s1', 0.70),
  ('CN1CCN(c2cc(Nc3ncc(C#N)s3)ncn2)CC1', -0.03),
  ('N#Cc1cnc(Nc2cc(N3CCCNCC3)ncn2)s1', 0.47),
  ('N#Cc1cnc(Nc2cc(N3CCN(CCN4CCCC4)CC3)ncn2)s1', -0.42);

----------
procedure.text: Volume of distribution in Beagle dog at 0.25 mg/kg, iv
Type: ADME, organism-based, Canis lupus familiaris
Parameters: dose 0.25 mg/kg, route intravenous
details: in vivo, read-out: Vdss
// classify: if (Vd < 10 L/kg) class 1 else class 0

INSERT INTO measurements (smiles_entry, qualitative_label) VALUES
  ('N#Cc1cnc(Nc2cc(N3CCC(N)CC3)ncn2)s1', 'class 1'),
  ('COCCN1CCN(c2cc(Nc3ncc(C#N)s3)ncn2)CC1', 'class 1'),
  ('N#Cc1cnc(Nc2cc(N3CCN(CCCN4CCOCC4)CC3)ncn2)s1', 'class 0'),
  ('N#Cc1cnc(Nc2cc(N3CCN(CCN4CCOCC4)CC3)ncn2)s1', 'class 1'),
  ('N#Cc1cnc(Nc2cc(N3CCN(CCN4CCCC4)CC3)ncn2)s1', 'class 0');
